Here, each record is paired with measured IC50 data.
Target: Histone acetyltransferase KAT2A (Homo sapiens, UniProt Q92830)
Sequence (Q92830 whole entry, the tested form may be a part): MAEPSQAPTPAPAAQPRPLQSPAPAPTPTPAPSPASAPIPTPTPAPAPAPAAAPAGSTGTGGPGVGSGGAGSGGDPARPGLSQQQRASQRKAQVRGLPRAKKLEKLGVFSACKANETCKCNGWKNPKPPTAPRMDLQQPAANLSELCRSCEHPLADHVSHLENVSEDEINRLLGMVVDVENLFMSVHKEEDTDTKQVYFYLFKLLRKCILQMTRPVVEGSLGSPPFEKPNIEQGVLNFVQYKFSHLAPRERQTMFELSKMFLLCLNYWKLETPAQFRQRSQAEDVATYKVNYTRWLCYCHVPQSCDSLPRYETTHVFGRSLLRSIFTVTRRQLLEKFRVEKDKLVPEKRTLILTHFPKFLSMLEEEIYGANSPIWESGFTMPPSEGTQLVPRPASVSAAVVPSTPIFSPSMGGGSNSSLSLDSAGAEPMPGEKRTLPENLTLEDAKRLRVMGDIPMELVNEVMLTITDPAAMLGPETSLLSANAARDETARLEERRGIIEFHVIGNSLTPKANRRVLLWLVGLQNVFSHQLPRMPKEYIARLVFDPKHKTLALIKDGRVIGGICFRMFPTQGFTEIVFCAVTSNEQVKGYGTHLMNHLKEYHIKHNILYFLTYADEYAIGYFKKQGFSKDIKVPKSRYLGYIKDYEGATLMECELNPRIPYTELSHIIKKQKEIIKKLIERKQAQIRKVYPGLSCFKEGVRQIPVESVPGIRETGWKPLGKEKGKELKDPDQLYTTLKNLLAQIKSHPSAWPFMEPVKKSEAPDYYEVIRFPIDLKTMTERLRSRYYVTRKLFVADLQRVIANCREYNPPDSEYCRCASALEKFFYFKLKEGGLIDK
Assay: Inhibition of human GCN5L2 (E726 to K837 residues) expressed in bacterial expression system by BROMOscan assay

{"chemical string": "Cn1cc(-c2cc(S(C)(=O)=O)ccc2Oc2ccc(F)cc2F)c2cc[nH]c(=O)c21", "measurement target": "Histone acetyltransferase KAT2A (Homo sapiens, UniProt Q92830)", "IC50": "> 1000 nM"}
{"chemical string": "Cc1[nH]c(-c2cc(NS(C)(=O)=O)ccc2Oc2ccccc2)c2c1C(=O)CCC2", "measurement target": "Histone acetyltransferase KAT2A (Homo sapiens, UniProt Q92830)", "IC50": "> 1000 nM"}

---

Target: Bromodomain-containing protein 3 (Homo sapiens, UniProt Q15059)
Sequence (Q15059 whole entry, the tested form may be a part): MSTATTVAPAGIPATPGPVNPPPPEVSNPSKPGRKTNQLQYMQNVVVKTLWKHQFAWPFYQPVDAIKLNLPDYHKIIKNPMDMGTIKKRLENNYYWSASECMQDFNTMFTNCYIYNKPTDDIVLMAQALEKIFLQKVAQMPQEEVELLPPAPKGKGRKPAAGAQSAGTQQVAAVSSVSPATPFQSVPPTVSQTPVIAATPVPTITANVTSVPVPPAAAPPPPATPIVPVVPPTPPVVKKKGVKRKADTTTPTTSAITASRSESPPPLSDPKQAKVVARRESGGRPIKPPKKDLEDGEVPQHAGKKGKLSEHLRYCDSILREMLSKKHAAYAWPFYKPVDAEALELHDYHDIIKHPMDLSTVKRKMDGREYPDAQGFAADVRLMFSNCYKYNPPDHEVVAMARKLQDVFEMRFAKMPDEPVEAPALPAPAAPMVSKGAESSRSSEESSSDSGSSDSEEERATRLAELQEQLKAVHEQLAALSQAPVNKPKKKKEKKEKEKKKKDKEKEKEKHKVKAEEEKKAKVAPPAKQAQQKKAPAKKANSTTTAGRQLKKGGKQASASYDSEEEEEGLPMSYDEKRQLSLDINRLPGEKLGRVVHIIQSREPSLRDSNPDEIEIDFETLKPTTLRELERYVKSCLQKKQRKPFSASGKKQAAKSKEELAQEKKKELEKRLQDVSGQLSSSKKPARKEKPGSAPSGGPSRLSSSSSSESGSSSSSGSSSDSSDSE
Assay: Binding affinity to BRD3 BD1-BD2 (P24 to P416 residues) (unknown origin) after 1 hr by Alexa-647-conjugated probe based TR-FRET assay
We begin with a simple list: items and their reported Ki.
readout: Ki (µM)

{"chemical string": "Cn1cc(-c2cc(S(C)(=O)=O)ccc2Oc2ccc(F)cc2F)c2cc[nH]c(=O)c21", "data value": 0.29}
{"chemical string": "Cc1[nH]c(-c2cc(NS(C)(=O)=O)ccc2Oc2ccccc2)c2c1C(=O)CCC2", "data value": 0.035}
{"chemical string": "Cc1[nH]c(-c2cc(S(C)(=O)=O)ccc2Oc2ccc(F)cc2F)c2c1C(=O)NCC2", "data value": 0.11}

---

Biological target: UniProtKB Q9UPN9
Sequence (Q9UPN9 whole entry, the tested form may be a part): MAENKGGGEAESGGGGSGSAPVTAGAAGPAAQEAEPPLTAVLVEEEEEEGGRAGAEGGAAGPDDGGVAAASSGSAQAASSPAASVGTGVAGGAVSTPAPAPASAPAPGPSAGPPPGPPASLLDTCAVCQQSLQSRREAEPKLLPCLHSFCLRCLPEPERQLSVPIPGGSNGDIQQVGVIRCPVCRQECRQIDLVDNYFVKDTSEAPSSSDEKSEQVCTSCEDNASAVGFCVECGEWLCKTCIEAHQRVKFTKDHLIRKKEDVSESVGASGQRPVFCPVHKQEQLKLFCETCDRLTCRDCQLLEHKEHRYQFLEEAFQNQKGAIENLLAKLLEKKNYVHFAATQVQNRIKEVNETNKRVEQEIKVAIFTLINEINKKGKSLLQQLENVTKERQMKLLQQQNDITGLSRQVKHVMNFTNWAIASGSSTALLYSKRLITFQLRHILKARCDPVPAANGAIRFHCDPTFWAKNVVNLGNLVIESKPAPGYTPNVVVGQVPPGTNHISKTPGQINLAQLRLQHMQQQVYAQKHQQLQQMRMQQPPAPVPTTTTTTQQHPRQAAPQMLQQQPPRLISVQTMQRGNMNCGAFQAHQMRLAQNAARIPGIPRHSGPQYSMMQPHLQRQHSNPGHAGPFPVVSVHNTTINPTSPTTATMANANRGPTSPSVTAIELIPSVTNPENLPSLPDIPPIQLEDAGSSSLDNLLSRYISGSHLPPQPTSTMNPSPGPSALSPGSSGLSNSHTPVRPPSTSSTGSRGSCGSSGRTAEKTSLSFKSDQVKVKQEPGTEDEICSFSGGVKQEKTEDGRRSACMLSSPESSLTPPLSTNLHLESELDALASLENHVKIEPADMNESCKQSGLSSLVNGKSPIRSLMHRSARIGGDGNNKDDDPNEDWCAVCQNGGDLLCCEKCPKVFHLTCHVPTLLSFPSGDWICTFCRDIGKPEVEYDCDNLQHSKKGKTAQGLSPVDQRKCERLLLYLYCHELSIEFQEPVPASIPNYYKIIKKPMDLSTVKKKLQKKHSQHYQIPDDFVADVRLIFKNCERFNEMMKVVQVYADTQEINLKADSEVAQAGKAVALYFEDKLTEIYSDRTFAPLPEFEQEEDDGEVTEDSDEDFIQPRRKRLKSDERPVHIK
Test: Inhibition of human TRIM33-phd-bromo (D882 to A1087 residues) expressed in bacterial expression system by BROMOscan assay
readout: IC50

{"chemical string": "Cc1[nH]c(-c2cc(NS(C)(=O)=O)ccc2Oc2ccccc2)c2c1C(=O)CCC2", "readout": "IC50", "data value": "> 10 µM"}
{"chemical string": "Cn1cc(-c2cc(S(C)(=O)=O)ccc2Oc2ccc(F)cc2F)c2cc[nH]c(=O)c21", "readout": "IC50", "data value": "> 10 µM"}
{"chemical string": "Cc1[nH]c(-c2cc(S(C)(=O)=O)ccc2Oc2ccc(F)cc2F)c2c1C(=O)NCC2", "readout": "IC50", "data value": "> 10 µM"}

---

Target: Protein polybromo-1 (Homo sapiens)
Sequence (Q86U86 whole entry, the tested form may be a part): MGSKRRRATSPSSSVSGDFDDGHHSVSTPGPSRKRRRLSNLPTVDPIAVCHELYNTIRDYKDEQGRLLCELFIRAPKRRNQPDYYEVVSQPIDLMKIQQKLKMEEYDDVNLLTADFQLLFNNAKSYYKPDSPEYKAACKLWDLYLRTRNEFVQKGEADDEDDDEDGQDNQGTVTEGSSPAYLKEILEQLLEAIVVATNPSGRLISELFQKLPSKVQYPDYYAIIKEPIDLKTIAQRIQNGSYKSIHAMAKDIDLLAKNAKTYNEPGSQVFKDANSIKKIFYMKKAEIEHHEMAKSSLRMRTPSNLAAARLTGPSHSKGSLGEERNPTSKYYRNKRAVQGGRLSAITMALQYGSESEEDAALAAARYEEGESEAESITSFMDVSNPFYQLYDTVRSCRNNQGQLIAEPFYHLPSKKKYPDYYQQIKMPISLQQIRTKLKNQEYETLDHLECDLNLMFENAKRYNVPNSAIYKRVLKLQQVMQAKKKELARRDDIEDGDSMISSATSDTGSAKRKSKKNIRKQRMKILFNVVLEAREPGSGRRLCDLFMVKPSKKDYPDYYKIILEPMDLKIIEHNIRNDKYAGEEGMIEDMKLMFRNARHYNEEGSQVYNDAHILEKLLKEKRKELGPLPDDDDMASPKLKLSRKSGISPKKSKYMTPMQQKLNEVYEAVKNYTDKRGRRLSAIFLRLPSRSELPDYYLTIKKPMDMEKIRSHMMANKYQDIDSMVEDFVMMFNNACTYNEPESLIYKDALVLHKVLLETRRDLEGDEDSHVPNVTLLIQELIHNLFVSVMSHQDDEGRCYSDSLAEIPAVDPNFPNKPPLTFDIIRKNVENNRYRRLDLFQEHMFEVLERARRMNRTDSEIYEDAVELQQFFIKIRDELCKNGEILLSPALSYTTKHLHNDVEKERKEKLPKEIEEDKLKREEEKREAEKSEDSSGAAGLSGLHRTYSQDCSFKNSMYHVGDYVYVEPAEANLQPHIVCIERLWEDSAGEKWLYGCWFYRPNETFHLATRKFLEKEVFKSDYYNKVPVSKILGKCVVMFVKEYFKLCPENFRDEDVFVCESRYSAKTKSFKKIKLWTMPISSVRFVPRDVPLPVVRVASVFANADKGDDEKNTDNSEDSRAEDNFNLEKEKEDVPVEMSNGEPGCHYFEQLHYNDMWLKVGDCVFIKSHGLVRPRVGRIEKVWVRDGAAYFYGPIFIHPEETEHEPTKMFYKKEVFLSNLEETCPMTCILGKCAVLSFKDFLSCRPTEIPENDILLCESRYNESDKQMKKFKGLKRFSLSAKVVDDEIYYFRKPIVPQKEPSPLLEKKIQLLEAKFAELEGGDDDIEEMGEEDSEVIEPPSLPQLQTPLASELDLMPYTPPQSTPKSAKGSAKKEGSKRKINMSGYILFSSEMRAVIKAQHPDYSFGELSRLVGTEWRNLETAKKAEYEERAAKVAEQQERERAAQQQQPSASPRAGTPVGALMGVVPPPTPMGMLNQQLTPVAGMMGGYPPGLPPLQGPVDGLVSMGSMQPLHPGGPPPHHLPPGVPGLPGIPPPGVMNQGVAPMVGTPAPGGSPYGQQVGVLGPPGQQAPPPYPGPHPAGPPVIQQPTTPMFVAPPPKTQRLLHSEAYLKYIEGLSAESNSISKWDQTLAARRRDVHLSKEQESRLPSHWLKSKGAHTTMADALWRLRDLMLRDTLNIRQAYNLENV
Assay: Inhibition of human PBRM1 bromodomain 5 (S645 to D766 residues) expressed in bacterial expression system by BROMOscan assay
pIC50: −log10 of the molar value.
Here the recorded pIC50 is given for each entry.
readout: pIC50

{"chemical string": "Cc1[nH]c(-c2cc(NS(C)(=O)=O)ccc2Oc2ccccc2)c2c1C(=O)CCC2", "measurement target": "Protein polybromo-1 (Homo sapiens)", "data value": "< 6.00"}
{"chemical string": "Cn1cc(-c2cc(S(C)(=O)=O)ccc2Oc2ccc(F)cc2F)c2cc[nH]c(=O)c21", "measurement target": "Protein polybromo-1 (Homo sapiens)", "data value": "< 6.00"}

---

Biological target: Bromodomain-containing protein 4 (Homo sapiens)
Assay: Binding affinity to BRD4 BD1 (K57 to E168 residues) (unknown origin) after 1 hr by Alexa-647-conjugated probe based TR-FRET assay
pKi: −log10 of the molar value.
Entries and their measured pKi follow.
readout: pKi

{"chemical string": "Cn1cc(-c2cc(S(C)(=O)=O)ccc2Oc2ccc(F)cc2F)c2cc[nH]c(=O)c21", "data value": 7.11}
{"chemical string": "Cc1[nH]c(-c2cc(NS(C)(=O)=O)ccc2Oc2ccccc2)c2c1C(=O)CCC2", "data value": 7.74}
{"chemical string": "Cc1[nH]c(-c2cc(S(C)(=O)=O)ccc2Oc2ccc(F)cc2F)c2c1C(=O)NCC2", "data value": 7.47}

Where these numbers come from: ChEMBL document CHEMBL4038268
